test: TLR3 IRF3 reporter activation blockers – cell-based, poly I:C stimulus, luciferase, 10K MLSCN set, primary screen (AID 602277); conditions: HEK293-TLR3 RL24 IRF3 luciferase reporter, at 10 µM, hits give high values
Classification field: enter yes for inhibition values not below 20%, no for values below it.

Form field: inhibition at least 20%? Entry: CCN(CC(=O)Nc1ccc2c(c1)CCC2)Cc1nc2ccccc2c(=O)[nH]1 no

Please do the same for COc1ccccc1NC(=O)CSc1nnc(-c2ccncc2)o1 as well. no

Try CSCCC(NC(=O)CCN1C(=O)c2ccccc2C1=O)C(=O)O (stereo not given) next. no

Another compound to look at: COc1ccc2c(c1)C1(Nc3ccccc3-c3nc4ccccc4n31)C(=O)N2 (stereo not given) yes

Next compound up: Cc1ccc(-c2nn(-c3ccccc3)cc2/C=C(\C#N)c2cccc(C#N)c2)o1 no
